Hey, just so you know, these numbers are from PubChem BioAssay (NCI).

# Tested on: SK-OV-3 ovarian
# experimentalProtocol: NCI-60 one-dose screen, 48 h
# conditionDescription: 10 µM unless noted
# Experimental: Growth inhibition of the SK-OV-3 human tumor cell line is measured as a screen for anti-cancer activity. Cells are grown in 96 well plates and exposed to the test compound for 48 hours. Compounds are tested at a single concentration, which is 10^-5 M for most compounds. The reported endpoint is percent growth (GI% or GIPRCNT), where numbers from 0 - 100% represent growth inhibition, and numbers from -100% - 0 represent cell death. For example, a value of 40 represents 60% growth inhibition. […]
About 83,000 compounds went through this panel and 20% of them were active in at least one assay; those are over-represented in the sample as a whole. Calls of active or inactive are those of the source. The calls were made as follows: active = growth percent below 10; inactive = the rest.
Hi there, use one of these labels in your reply, thanks! active, inactive

Below, 6 molecules whose answers are already recorded.
## Task Per the records of this test, what outcome belongs to "N#Cc1nc2c(S(=O)(=O)c3ccccc3)c(N)n(Cc3cccnc3)c2nc1C#N" ?
## Result inactive

## Task Per the records of this test, what outcome belongs to "Cc1ccc(Nc2nc(-c3ccc(F)cc3)c(C#N)c(=O)n2C)cc1" ?
## Result inactive

## Task Per the records of this test, what outcome belongs to "Cc1ccc(C)c(-n2c(-c3ccc(Br)cc3)csc2=NC(=O)c2ccccc2F)c1" ?
## Result inactive

## Task Per the records of this test, what outcome belongs to "COc1ccc(-c2ccc(-c3ccc(C(=N)N)cn3)s2)cc1" ?
## Result inactive

## Task Per the records of this test, what outcome belongs to "NC(=O)c1ccc(NC(=O)c2oc3ccccc3c2-c2cnn(-c3ccccc3)c2)cc1" ?
## Result inactive

## Task Per the records of this test, what outcome belongs to "Cc1cc2nc(-c3c(-c4ccc(F)cc4)nc4sccn34)[nH]c2cc1C" ?
## Result inactive

Continuing:
## Task Per the records of this test, what outcome belongs to "COc1cc(/C=C/c2cc(/C=C/c3ccc(O)c(OC)c3)n(C(=O)Nc3ccc(F)cc3)n2)ccc1O" ?
## Result active

## Task Per the records of this test, what outcome belongs to "CCC/C(=N\NC(N)=O)C(OC)OC" ?
## Result inactive

## Task Per the records of this test, what outcome belongs to "O=C1/C(=C/c2ccc(C(F)(F)F)cc2)COc2ccc(O)c(O)c21" ?
## Result inactive

====

# Test system: 786-0 renal
# experimentalProtocol: NCI-60 one-dose screen, 48 h (100 = growth as untreated, 0 = no growth, -100 = all killed)
# conditionDescription: 10 µM unless noted
The panel holds about 83,000 compounds, 20% with a hit somewhere; the sample as a whole holds those more often.
assayEndpoint: growth (%)
Expressed in %, but write only the number.

Before answering, review these 2 worked examples.
Recorded result, "Cc1cc2oc(=O)cc(CP(=O)(O)O)c2cc1O" , growth: 105

Recorded result, "CCCCCCNc1nc(NCCCCCC)c2[nH]c(NCCCCCC)nc2n1" , growth: 68.2

Turning now to a further record.
Recorded result, "COc1ccc(-c2oc(=O)ccc2-c2cc(OC)c(OC)c(OC)c2)cc1O" , growth: 20.5

====

# System: MOLT-4 leukemia
# experimentalProtocol: NCI-60 one-dose screen, 48 h (100 = growth as untreated, 0 = no growth, -100 = all killed)
# conditionDescription: 10 µM unless noted
Compounds without any hit were thinned out: in the full panel of roughly 83,000, 20% have a hit.
Reported values of growth for individual entries
Expressed in %, but write only the number.

Recorded result, "N=c1sc(Cc2cc(Cl)ccc2Cl)cn1CC(=O)c1ccccc1" , growth: 49.8

Recorded result, COc1ccc(C2=NN(C(C)=O)C(c3ccc(Oc4ccnc5cc(Cl)ccc45)c(OC)c3)C2)cc1 (stereo not drawn) , growth: 78.9

Continuing:
Recorded result, "CCOC(=O)c1c(NC(=O)c2ccc(C(C)(C)C)cc2)sc2cc(O)ccc12" , growth: 82.3
